assay_info: yeast display, Sf9 membrane polyspecificity reagent, FACS + sequencing; frameworks hold sequencing errors
quantity: polyreactivity (PSR sort gate)

polymer_sequence	reported_value
QVQLVESGGGLVQAGGSLRLSCAASGTTFYGYVMGWYRQAPGKQREWVAAISSSGGRTYYADSVKGRFTISRDNAKNTVYLQMNSLNPEDTAVYYCNTVQRYSTHYDYWGQGTQVTVSS	high polyreactivity
QVQLVESGGGLVQAGGSLLLSCAASGRILDFYDMGWYRQAPGKERELVAAITNSASTYYADSVKGRFTISRDNAKNTVYLQMNRLKPEDTAVYYCNADLYRGAYYGTYWSDWGYDYWGQGTQVTVSS	low polyreactivity
QVQLVESGGGLVQAGGSLRLSCAAYGRTFTWYSMGWYRQAPGKERELVAAISKSGGSTYYSDSVKGRFTISRDNAKITVYLQMNSLKPEDTAVYYCNAEFYGYFLGYGYWGQGTQVSVSS	low polyreactivity
QVQLVESGGGLVQAGGSLRLSCAASGSTFATYTMGWYRQAPGKERELVAAITRGSNTYYADSVKGRFTISRDNAKNTVDLQMNSLKPEHTAVYYCAAGYSGYRKYNSWGQGTQVTVSS	high polyreactivity
QVQLVESGGGLVQAGGSLRLSCAASGFTFGYYAMGWYRQAPGKERELVAAISKSGGSTYYADSVKGRFTISRDNAKNTVYLQMNSLKPEDCAVYYCAAIASIRGYYYWGQGTQVNVSS	high polyreactivity

###

assay_info: yeast display, Sf9 membrane polyspecificity reagent, FACS + sequencing; frameworks hold sequencing errors

polymer_sequence	polyreactivity (PSR sort gate)
QVQRVESGGGLVQAGGSLRLSCAGCGRIFHYYAMGWYRQAPGKEMELVAAITSSGGSTYYADSVKGRFTISRDHPKNTVYLQMNSLKPEDTAVYYCAAGLIVGRFLRYDYWGQGTQVTVSS	high polyreactivity
QVQLVESGGGLVQAGGSLRLSCAASGRIFLTYAMGWYRQAPGKERELVAAITRRGGRTNYADSVKGRFTISRDNAKNTVYLQMNSLKPEDTAVYYCAKSPWPSHLDYDYWGQGTQVTVSS	low polyreactivity
QVQLVESGGGLVHAGGSLSLSCAASGRTFTSNAMGWYRQAPGKERELVATINGGVSTYYADSVKGRFTISRDNAKNTVYLQMNSLKPEDTAVYYCARDAYDADPSLWYYTYDYWGQGTQVTVSS	low polyreactivity
QVQLVESGGGLVQAGGSLRLSCAASGYTFRYAMGWYRQAPGKERELVAAISSRGSSTYYADSVKGRFTISRDNAKNTVYLQMNSLKPEDTAVYYCAAKHFVKGDYWGQGTQVTVSS	high polyreactivity
QVQLVESGGGLVQAGGSLRLSCAASGRIFYYYAMGWYRQAPGKERELVAAISAGGGRTYYADSVKGRFTISRDNAKNTVYLQMNSLKPEDTAVYYCAVGRRIPGKYTSFGYWGQGTQVTVSS	high polyreactivity
QVQLQESGGGLVQADGSLRLSCAASGSIIGYYYMGWYRQAPGKDRELVATINNCGITNYADSVKGLFTISRDNAKNTVYLQMNSLKPDDTAVYYCAADEYAQRDLGYWGQGTQVTVSN	low polyreactivity
QVQLVESGGGLVQAGGSLRLSCAASGSIFYGNAMGWYRQAPGKEREFVAAINWSGARTYYADSVKGRFTISRDNAKNTVSLQMNSLKPEDTAVYYCAAGRPFSFRYEFDYWGQGTQVTVSS	high polyreactivity
